test system: HCC-44; assay: relative viability (nuclei count vs DMSO), 5 days (fraction); higher = more cells survive; settings: first compound 0.01581 µM
relative viability: recorded values
measured metric: relative viability

{"compound": "CC1(C)CCC(c2ccc(Cl)cc2)=C(CN2CCN(c3ccc(C(=O)NS(=O)(=O)c4ccc(N[C@H](CCN5CCOCC5)CSc5ccccc5)c(S(=O)(=O)C(F)(F)F)c4)cc3)CC2)C1 [Navitoclax] + N=C(N)NC(=N)NCCc1ccccc1 [Phenformin] (partner 250 µM)", "quantitative result": 0.184}
{"compound": "CC1(C)CCC(c2ccc(Cl)cc2)=C(CN2CCN(c3ccc(C(=O)NS(=O)(=O)c4ccc(N[C@H](CCN5CCOCC5)CSc5ccccc5)c(S(=O)(=O)C(F)(F)F)c4)cc3)CC2)C1 [Navitoclax] + Nc1nc2[nH]cc(CCc3ccc(C(=O)N[C@@H](CCC(=O)O)C(=O)O)cc3)c2c(=O)[nH]1 [Pemetrexed] (partner 0.2 µM)", "quantitative result": 0.65}
{"compound": "CC1(C)CCC(c2ccc(Cl)cc2)=C(CN2CCN(c3ccc(C(=O)NS(=O)(=O)c4ccc(N[C@H](CCN5CCOCC5)CSc5ccccc5)c(S(=O)(=O)C(F)(F)F)c4)cc3)CC2)C1 [Navitoclax] + C[C@]1(O)C[C@@H](c2nc(-c3ccc4ccc(-c5ccccc5)nc4c3)c3c(N)nccn32)C1 [Linsitinib] (partner 1 µM)", "quantitative result": 0.625}
{"compound": "CC1(C)CCC(c2ccc(Cl)cc2)=C(CN2CCN(c3ccc(C(=O)NS(=O)(=O)c4ccc(N[C@H](CCN5CCOCC5)CSc5ccccc5)c(S(=O)(=O)C(F)(F)F)c4)cc3)CC2)C1 [Navitoclax] + O=C(c1cc(Cc2n[nH]c(=O)c3ccccc23)ccc1F)N1CCN(C(=O)C2CC2)CC1 [Olaparib] (partner 8 µM)", "quantitative result": 0.98}

* * *

tested on: NCI-H23; experiment: relative viability (nuclei count vs DMSO), 5 days (fraction); higher = more cells survive; settings: first compound 0.1581 µM
measured metric: relative viability

{"compound": "CC1(C)CCC(c2ccc(Cl)cc2)=C(CN2CCN(c3ccc(C(=O)NS(=O)(=O)c4ccc(N[C@H](CCN5CCOCC5)CSc5ccccc5)c(S(=O)(=O)C(F)(F)F)c4)cc3)CC2)C1 [Navitoclax] + CC(=O)Nc1cccc(-n2c(=O)n(C3CC3)c(=O)c3c(Nc4ccc(I)cc4F)n(C)c(=O)c(C)c32)c1 [Trametinib] (partner 0.02 µM)", "measured on": "NCI-H23", "measured metric": "relative viability", "result": 0.357}
{"compound": "CC1(C)CCC(c2ccc(Cl)cc2)=C(CN2CCN(c3ccc(C(=O)NS(=O)(=O)c4ccc(N[C@H](CCN5CCOCC5)CSc5ccccc5)c(S(=O)(=O)C(F)(F)F)c4)cc3)CC2)C1 [Navitoclax] + Cc1nc(NC(=O)N2CCC[C@H]2C(N)=O)sc1-c1ccnc(C(C)(C)C(F)(F)F)c1 [Alpelisib] (partner 2 µM)", "measured on": "NCI-H23", "measured metric": "relative viability", "result": 0.633}
{"compound": "CC1(C)CCC(c2ccc(Cl)cc2)=C(CN2CCN(c3ccc(C(=O)NS(=O)(=O)c4ccc(N[C@H](CCN5CCOCC5)CSc5ccccc5)c(S(=O)(=O)C(F)(F)F)c4)cc3)CC2)C1 [Navitoclax] + C[C@]1(O)C[C@@H](c2nc(-c3ccc4ccc(-c5ccccc5)nc4c3)c3c(N)nccn32)C1 [Linsitinib] (partner 1 µM)", "measured on": "NCI-H23", "measured metric": "relative viability", "result": 0.509}
{"compound": "CC1(C)CCC(c2ccc(Cl)cc2)=C(CN2CCN(c3ccc(C(=O)NS(=O)(=O)c4ccc(N[C@H](CCN5CCOCC5)CSc5ccccc5)c(S(=O)(=O)C(F)(F)F)c4)cc3)CC2)C1 [Navitoclax] + COc1cccc2cc(-c3nc([C@H]4CC[C@H](C(=O)O)CC4)n4ncnc(N)c34)[nH]c12 [OSI-027] (partner 0.5 µM)", "measured on": "NCI-H23", "measured metric": "relative viability", "result": 0.582}
{"compound": "CC1(C)CCC(c2ccc(Cl)cc2)=C(CN2CCN(c3ccc(C(=O)NS(=O)(=O)c4ccc(N[C@H](CCN5CCOCC5)CSc5ccccc5)c(S(=O)(=O)C(F)(F)F)c4)cc3)CC2)C1 [Navitoclax] + CS(=O)(=O)N1CCN(Cc2cc3nc(-c4cccc5[nH]ncc45)nc(N4CCOCC4)c3s2)CC1 [Pictilisib] (partner 1 µM)", "measured on": "NCI-H23", "measured metric": "relative viability", "result": 0.433}
{"compound": "CC1(C)CCC(c2ccc(Cl)cc2)=C(CN2CCN(c3ccc(C(=O)NS(=O)(=O)c4ccc(N[C@H](CCN5CCOCC5)CSc5ccccc5)c(S(=O)(=O)C(F)(F)F)c4)cc3)CC2)C1 [Navitoclax] + Nc1nc2[nH]cc(CCc3ccc(C(=O)N[C@@H](CCC(=O)O)C(=O)O)cc3)c2c(=O)[nH]1 [Pemetrexed] (partner 0.2 µM)", "measured on": "NCI-H23", "measured metric": "relative viability", "result": 0.603}
{"compound": "CC1(C)CCC(c2ccc(Cl)cc2)=C(CN2CCN(c3ccc(C(=O)NS(=O)(=O)c4ccc(N[C@H](CCN5CCOCC5)CSc5ccccc5)c(S(=O)(=O)C(F)(F)F)c4)cc3)CC2)C1 [Navitoclax] + CC(=O)c1c(C)c2cnc(Nc3ccc(N4CCNCC4)cn3)nc2n(C2CCCC2)c1=O [Palbociclib] (partner 0.5 µM)", "measured on": "NCI-H23", "measured metric": "relative viability", "result": 0.446}

* * *

system: H3255; assay: relative viability (nuclei count vs DMSO), 5 days (fraction); higher = more cells survive; settings: first compound 0.005 µM
relative viability: recorded values

{"compound": "CC1(C)CCC(c2ccc(Cl)cc2)=C(CN2CCN(c3ccc(C(=O)NS(=O)(=O)c4ccc(N[C@H](CCN5CCOCC5)CSc5ccccc5)c(S(=O)(=O)C(F)(F)F)c4)cc3)CC2)C1 [Navitoclax] + O=C(CCCCCCC(=O)Nc1ccccc1)NO [Vorinostat] (partner 1 µM)", "relative viability": 0.787}
{"compound": "CC1(C)CCC(c2ccc(Cl)cc2)=C(CN2CCN(c3ccc(C(=O)NS(=O)(=O)c4ccc(N[C@H](CCN5CCOCC5)CSc5ccccc5)c(S(=O)(=O)C(F)(F)F)c4)cc3)CC2)C1 [Navitoclax] + CC(C)C[C@H](NC(=O)[C@H](Cc1ccccc1)NC(=O)c1cnccn1)B(O)O [Bortezomib] (partner 0.002 µM)", "relative viability": 0.849}
{"compound": "CC1(C)CCC(c2ccc(Cl)cc2)=C(CN2CCN(c3ccc(C(=O)NS(=O)(=O)c4ccc(N[C@H](CCN5CCOCC5)CSc5ccccc5)c(S(=O)(=O)C(F)(F)F)c4)cc3)CC2)C1 [Navitoclax] + NC(=O)Nc1cc(-c2cccc(F)c2)sc1C(=O)N[C@H]1CCCNC1 [AZD7762] (partner 0.2 µM)", "relative viability": 0.891}

* * *

system: NCI-H520; experiment: relative viability (nuclei count vs DMSO), 5 days (fraction); higher = more cells survive; conditions: first compound 0.253 µM
measured metric: relative viability

{"compound": "Oc1nc(-c2ccc(C(F)(F)F)cc2)nc2c1CSCC2 [XAV939] + CS(=O)(=O)CCNCc1ccc(-c2ccc3ncnc(Nc4ccc(OCc5cccc(F)c5)c(Cl)c4)c3c2)o1 [Lapatinib] (partner 2 µM)", "quantitative result": 0.78}
{"compound": "C=C1C(=O)O[C@@H](CCCCCCCC)[C@@H]1C(=O)O [C-75] + CC(C)C[C@H](NC(=O)[C@H](Cc1ccccc1)NC(=O)c1cnccn1)B(O)O [Bortezomib] (partner 0.002 µM)", "quantitative result": 0.425}
{"compound": "Oc1nc(-c2ccc(C(F)(F)F)cc2)nc2c1CSCC2 [XAV939] + CC(C)C[C@H](NC(=O)[C@H](Cc1ccccc1)NC(=O)c1cnccn1)B(O)O [Bortezomib] (partner 0.002 µM)", "quantitative result": 0.317}

* * *

test system: PC-14; assay: relative viability (nuclei count vs DMSO), 5 days (fraction); higher = more cells survive; conditions: first compound 0.8 µM
measured metric: relative viability

{"molecule": "C=C1C(=O)O[C@@H](CCCCCCCC)[C@@H]1C(=O)O [C-75] + Cc1cc(Nc2cc(N3CCN(C)CC3)nc(Sc3ccc(NC(=O)C4CC4)cc3)n2)n[nH]1 [Tozasertib] (partner 0.1 µM)", "quantitative result": 0.548}
{"molecule": "C=C1C(=O)O[C@@H](CCCCCCCC)[C@@H]1C(=O)O [C-75] + CS(=O)(=O)N1CCN(Cc2cc3nc(-c4cccc5[nH]ncc45)nc(N4CCOCC4)c3s2)CC1 [Pictilisib] (partner 1 µM)", "quantitative result": 0.668}
{"molecule": "Oc1nc(-c2ccc(C(F)(F)F)cc2)nc2c1CSCC2 [XAV939] + COc1cccc2cc(-c3nc([C@H]4CC[C@H](C(=O)O)CC4)n4ncnc(N)c34)[nH]c12 [OSI-027] (partner 0.5 µM)", "quantitative result": 0.725}
